Test system: SNB-75
Test protocol: Cytotoxicity against human SNB75 cells after 2 days by sulforhodamine B assay
Assay type: functional
Measurement context: SNB-75, 48 h
Assay metric: LC50 (concentration killing 50% of starting cells) (µM)
Record the value in µM, omitting the unit from your answer.

| Smiles notation | Study system | Data value |
| --- | --- | --- |
| CC/C(=C(/c1ccc(OCCN(C)C)cc1)c1ccc(OC(=O)CCC(=O)C2=C(C)/C(=C/c3[nH]c(-c4ccc[nH]4)cc3OC)N=C2C)cc1)c1ccccc1 | SNB-75 | 62.9 |

Attention now turns to another entry.
For the compound CCC(=C(c1ccc(OCCN(C)C)cc1)c1ccc(OC(=O)CCCCC(=O)C2=C(C)/C(=C/c3[nH]c(-c4ccc[nH]4)cc3OC)N=C2C)cc1)c1ccccc1 , what LC50 (concentration killing 50% of starting cells) is on record? 44.7
